Source: PubChem BioAssay AID1645866

System Tested: Ubiquitin carboxyl-terminal hydrolase 28 (Homo sapiens) (UniProt Q96RU2)
Sequence (Q96RU2 whole entry, looked up): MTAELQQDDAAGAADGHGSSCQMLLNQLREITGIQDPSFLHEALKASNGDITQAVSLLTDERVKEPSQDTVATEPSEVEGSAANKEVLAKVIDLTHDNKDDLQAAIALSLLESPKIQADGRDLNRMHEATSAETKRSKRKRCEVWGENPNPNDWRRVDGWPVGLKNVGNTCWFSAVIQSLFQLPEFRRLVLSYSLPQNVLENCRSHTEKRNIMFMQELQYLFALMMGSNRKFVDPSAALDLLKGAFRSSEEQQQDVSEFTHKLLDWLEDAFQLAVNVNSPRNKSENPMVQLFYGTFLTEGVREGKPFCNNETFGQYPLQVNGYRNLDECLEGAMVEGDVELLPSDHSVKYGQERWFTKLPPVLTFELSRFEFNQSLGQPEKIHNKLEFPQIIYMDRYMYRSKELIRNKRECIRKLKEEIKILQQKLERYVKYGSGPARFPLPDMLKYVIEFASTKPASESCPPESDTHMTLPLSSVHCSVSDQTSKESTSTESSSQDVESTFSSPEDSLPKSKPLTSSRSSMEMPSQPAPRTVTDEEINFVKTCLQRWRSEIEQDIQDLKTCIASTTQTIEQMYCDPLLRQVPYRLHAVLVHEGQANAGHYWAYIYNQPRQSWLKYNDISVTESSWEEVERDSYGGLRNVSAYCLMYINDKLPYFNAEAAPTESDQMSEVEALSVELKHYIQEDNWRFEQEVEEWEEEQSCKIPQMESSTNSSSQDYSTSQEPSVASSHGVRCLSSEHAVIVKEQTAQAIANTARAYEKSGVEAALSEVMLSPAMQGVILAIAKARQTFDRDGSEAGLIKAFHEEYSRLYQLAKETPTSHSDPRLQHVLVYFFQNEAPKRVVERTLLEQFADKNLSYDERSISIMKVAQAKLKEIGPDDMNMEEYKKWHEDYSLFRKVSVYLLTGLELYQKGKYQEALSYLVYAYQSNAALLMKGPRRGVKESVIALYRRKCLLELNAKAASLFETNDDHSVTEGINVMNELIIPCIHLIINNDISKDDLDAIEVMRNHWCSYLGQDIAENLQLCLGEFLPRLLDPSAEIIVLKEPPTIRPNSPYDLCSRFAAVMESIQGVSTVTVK
Assay Info: Concentration-response biochemical assay confirming initial hits as inhibitors of ubiquitin-specific protease 28 (AID 1645866)
Particulars: purified USP28, ubiquitin-rhodamine fluorescence, 30 min
The source made the active and inactive calls.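 Rule for the calls: active = in confirmatory dose-response testing, peak deubiquitinase inhibition of 30% or more; inactive = the rest.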
# reported IC50; entries follow

[
  {
    "Compound": "Cc1cc(O)c(Oc2cc(C)cc(O)c2O)c(O)c1",
    "System Tested": "Ubiquitin carboxyl-terminal hydrolase 28 (Homo sapiens) (UniProt Q96RU2)",
    "IC50": "15.1 µM"
  },
  {
    "Compound": "COc1ccc(OC)c(NC(=O)C2=C(C)Nc3ncnn3C2c2ccccc2OCc2ccc(C)cc2)c1 (configuration not stated)",
    "System Tested": "Ubiquitin carboxyl-terminal hydrolase 28 (Homo sapiens) (UniProt Q96RU2)",
    "IC50": "19.9 µM"
  },
  {
    "Compound": "O=C(Nc1nnc2n1CCCS2)c1cccc(Cl)c1",
    "System Tested": "Ubiquitin carboxyl-terminal hydrolase 28 (Homo sapiens) (UniProt Q96RU2)",
    "IC50": "1.19 µM"
  },
  {
    "Compound": "COc1cccc(N2CCN(C(=O)Nc3ccc4c(c3)NC(=O)CO4)CC2)c1",
    "System Tested": "Ubiquitin carboxyl-terminal hydrolase 28 (Homo sapiens) (UniProt Q96RU2)",
    "IC50": "19.4 µM"
  },
  {
    "Compound": "Cc1ccccc1NC(=O)c1nc(-c2cn(Cc3ccc(F)cc3)nn2)no1",
    "System Tested": "Ubiquitin carboxyl-terminal hydrolase 28 (Homo sapiens) (UniProt Q96RU2)",
    "IC50": "5.88 µM"
  },
  {
    "Compound": "COC(=O)COc1ccc(/C=N/NC(=O)c2ccc(CN3CCc4ccccc4C3)cc2)cc1",
    "System Tested": "Ubiquitin carboxyl-terminal hydrolase 28 (Homo sapiens) (UniProt Q96RU2)",
    "IC50": "11.1 µM"
  },
  {
    "Compound": "CC(C)NC(=O)Cn1ccn2nc(-c3ccc(Cl)cc3)cc2c1=O",
    "System Tested": "Ubiquitin carboxyl-terminal hydrolase 28 (Homo sapiens) (UniProt Q96RU2)",
    "IC50": "8.61 µM"
  },
  {
    "Compound": "O=C(NC1CCCC1)C1CC(=O)N(c2cccc(-c3noc(-c4cccs4)n3)c2)C1 (configuration not stated)",
    "System Tested": "Ubiquitin carboxyl-terminal hydrolase 28 (Homo sapiens) (UniProt Q96RU2)",
    "IC50": "35.9 µM"
  },
  {
    "Compound": "Cc1cc(C)n(-c2ccc(C(=O)Nc3cccc(S(=O)(=O)N4CCCC4)c3)cc2)n1",
    "System Tested": "Ubiquitin carboxyl-terminal hydrolase 28 (Homo sapiens) (UniProt Q96RU2)",
    "IC50": "2.13 µM"
  },
  {
    "Compound": "O=C(NCc1ccc(Cl)cc1)Nc1cccc2ccccc12",
    "System Tested": "Ubiquitin carboxyl-terminal hydrolase 28 (Homo sapiens) (UniProt Q96RU2)",
    "IC50": "40.4 µM"
  },
  {
    "Compound": "COc1cccc2sc(N3CCN(c4nc5ccccc5s4)CC3)nc12",
    "System Tested": "Ubiquitin carboxyl-terminal hydrolase 28 (Homo sapiens) (UniProt Q96RU2)",
    "IC50": "> 50 µM (inactive)"
  },
  {
    "Compound": "O=C(/C=C/c1ccco1)c1cccc([N+](=O)[O-])c1",
    "System Tested": "Ubiquitin carboxyl-terminal hydrolase 28 (Homo sapiens) (UniProt Q96RU2)",
    "IC50": "21.9 µM"
  },
  {
    "Compound": "Nc1c(C(=O)c2cccs2)oc2nc(-c3ccccc3)cc(-c3ccco3)c12",
    "System Tested": "Ubiquitin carboxyl-terminal hydrolase 28 (Homo sapiens) (UniProt Q96RU2)",
    "IC50": "> 50 µM (inactive)"
  },
  {
    "Compound": "CC(Sc1n[nH]c2nc3ccccc3n12)C(=O)Nc1ccc2c(c1)OCCO2 (configuration not stated)",
    "System Tested": "Ubiquitin carboxyl-terminal hydrolase 28 (Homo sapiens) (UniProt Q96RU2)",
    "IC50": "37.5 µM"
  },
  {
    "Compound": "COc1ccc(S(=O)(=O)N2CCN3Cc4ccccc4N(C)CC3C2)cc1 (configuration not stated)",
    "System Tested": "Ubiquitin carboxyl-terminal hydrolase 28 (Homo sapiens) (UniProt Q96RU2)",
    "IC50": "> 50 µM (inactive)"
  },
  {
    "Compound": "Cn1c(CCNC(=O)c2[nH]nc3c2CCc2ccccc2-3)nc2ccccc21",
    "System Tested": "Ubiquitin carboxyl-terminal hydrolase 28 (Homo sapiens) (UniProt Q96RU2)",
    "IC50": "23.7 µM"
  },
  {
    "Compound": "O=C(Cn1ncc2c(N3CCCCCC3)ncnc21)NCc1ccccc1",
    "System Tested": "Ubiquitin carboxyl-terminal hydrolase 28 (Homo sapiens) (UniProt Q96RU2)",
    "IC50": "> 50 µM (inactive)"
  },
  {
    "Compound": "COc1ccc(NC(=O)c2nnn(-c3ccccc3C)c2C)cc1OC",
    "System Tested": "Ubiquitin carboxyl-terminal hydrolase 28 (Homo sapiens) (UniProt Q96RU2)",
    "IC50": "4.78 µM"
  },
  {
    "Compound": "COc1ccc(CCNC(=O)CCn2c(=O)c3ccccc3n(Cc3ccc(C)cc3)c2=O)cc1OC",
    "System Tested": "Ubiquitin carboxyl-terminal hydrolase 28 (Homo sapiens) (UniProt Q96RU2)",
    "IC50": "22 µM"
  },
  {
    "Compound": "CC(=O)N1Cc2ccccc2CC2(CCCN(CC3CCOCC3)C2)C1 (configuration not stated)",
    "System Tested": "Ubiquitin carboxyl-terminal hydrolase 28 (Homo sapiens) (UniProt Q96RU2)",
    "IC50": "> 50 µM (inactive)"
  },
  {
    "Compound": "Cc1ccccc1NC(=O)C(C)n1c(=O)cc(-c2ccccc2)c2c(C)nn(C)c21 (configuration not stated)",
    "System Tested": "Ubiquitin carboxyl-terminal hydrolase 28 (Homo sapiens) (UniProt Q96RU2)",
    "IC50": "7.75 µM"
  },
  {
    "Compound": "Cc1ccc(-c2ncc(C(=O)NCc3cccc(C)c3)c(-c3ccncc3)n2)cc1",
    "System Tested": "Ubiquitin carboxyl-terminal hydrolase 28 (Homo sapiens) (UniProt Q96RU2)",
    "IC50": "> 50 µM (inactive)"
  }
]

====

System Tested: Ubiquitin carboxyl-terminal hydrolase 28 (Homo sapiens) (UniProt Q96RU2)
Assay Info: Concentration-response biochemical assay confirming initial hits as inhibitors of ubiquitin-specific protease 28 (AID 1645866)
Particulars: purified USP28, ubiquitin-rhodamine fluorescence, 30 min
Activity calls are given as the source filed them.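 How the source made its calls: active means in confirmatory dose-response testing, peak deubiquitinase inhibition of 30% or more; inactive means the rest.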
Possible outcomes: active, inactive

[
  {
    "Compound": "O=C1/C(=C/c2cn(-c3ccccc3)nc2-c2ccc3c(c2)OCCO3)Cc2ccccc21",
    "Assigned Label": "inactive"
  },
  {
    "Compound": "COc1cccc(N2CCN(c3ccc4nnc(CCC(=O)N5CCc6ccccc6C5)n4n3)CC2)c1",
    "Assigned Label": "active"
  },
  {
    "Compound": "Cc1cc2nc(-c3ccc(SCc4ccccn4)nc3)[nH]c2cc1C",
    "Assigned Label": "active"
  },
  {
    "Compound": "Cc1ccc2c(=O)c3c([nH]c2c1C)CCN(CC(=O)NCc1ccccc1)C3",
    "Assigned Label": "inactive"
  },
  {
    "Compound": "CC(C)(C)C(=O)Nc1ccc(SCc2nnc(-c3ccccc3)o2)cc1",
    "Assigned Label": "active"
  },
  {
    "Compound": "O=c1c(OC2O[C@H](CO)[C@H](O)[C@H](O)[C@H]2O)c(-c2ccc(O)cc2)oc2cc(O)cc(O)c12 (stereo partly specified)",
    "Assigned Label": "inactive"
  },
  {
    "Compound": "N#Cc1ccc(Cc2ncc(C(F)(F)F)cc2Cl)s1",
    "Assigned Label": "active"
  },
  {
    "Compound": "Cc1ccccc1NC(=O)Nc1ccccc1OCc1cc(=O)n2cccc(C)c2n1",
    "Assigned Label": "active"
  },
  {
    "Compound": "O=C(Cc1noc2ccccc12)N1CCN(c2ccc([N+](=O)[O-])cc2)CC1",
    "Assigned Label": "inactive"
  },
  {
    "Compound": "O=c1c2ccccc2oc2nc(-c3cccs3)n(-c3ccccc3)c(=O)c12",
    "Assigned Label": "active"
  },
  {
    "Compound": "Cc1ccc(-n2nc(C(=O)Nc3ccc(C)cn3)c3ncn(C)c(=O)c32)cc1",
    "Assigned Label": "active"
  },
  {
    "Compound": "Cc1cccc(NC(=O)c2ccn(COc3ccc(F)cc3F)n2)c1C",
    "Assigned Label": "inactive"
  },
  {
    "Compound": "O=C(CN1CCCc2ccccc21)Nc1ccc(N2CCOCC2)cc1",
    "Assigned Label": "inactive"
  },
  {
    "Compound": "Cc1sc2ncnc(OCc3ccc(F)cc3Cl)c2c1C",
    "Assigned Label": "active"
  },
  {
    "Compound": "CCCCc1ccc(-c2cc(C(=O)NCCN3CCOCC3)c3cc(Br)ccc3n2)cc1",
    "Assigned Label": "active"
  },
  {
    "Compound": "COc1ccc(NC(=O)CS(=O)(=O)c2[nH]c(-c3ccc(C)cc3)nc2-c2ccccc2)cc1Cl",
    "Assigned Label": "active"
  },
  {
    "Compound": "COc1cccc(-n2c(CNCc3cccnc3)nc3ccc([N+](=O)[O-])cc3c2=O)c1",
    "Assigned Label": "active"
  },
  {
    "Compound": "COc1cccc(NC(=O)C2Cc3ccccc3N2C(=O)c2ccccc2)c1 (stereo unspecified)",
    "Assigned Label": "active"
  },
  {
    "Compound": "C[C@@H](C(=O)NCc1ccc(F)cc1)N1C(=O)N2CCc3c([nH]c4ccccc34)[C@@]2(C)C1=O",
    "Assigned Label": "active"
  },
  {
    "Compound": "CC(C(=O)NCc1ccc(F)cc1)n1cccc1C(=O)c1ccccc1 (stereo unspecified)",
    "Assigned Label": "inactive"
  },
  {
    "Compound": "O=C(Nc1ccc2c(c1)OCCO2)c1cccc2nc3ccccc3nc12",
    "Assigned Label": "active"
  },
  {
    "Compound": "O=C(Nc1cccc(OC(=O)c2ccc(Cl)cc2)c1)c1ccc(Cl)cc1",
    "Assigned Label": "active"
  },
  {
    "Compound": "O=c1[nH]cccc1NS(=O)(=O)c1ccc(F)cc1",
    "Assigned Label": "inactive"
  },
  {
    "Compound": "N#Cc1ccc(NC(=O)COC(=O)c2ccc3ccccc3n2)cc1",
    "Assigned Label": "inactive"
  },
  {
    "Compound": "CC(=O)NCc1nc(-c2ccc3c(c2)nc(C)c(=O)n3C2CCCC2)no1",
    "Assigned Label": "inactive"
  },
  {
    "Compound": "COc1ccc(-c2cc(C(F)F)n3ncc(C(=O)Nc4ccc5c(c4)OCCO5)c3n2)cc1",
    "Assigned Label": "inactive"
  },
  {
    "Compound": "CSc1ccccc1C(=O)Nc1sc2c(c1C(N)=O)CCC(C)C2 (stereo unspecified)",
    "Assigned Label": "active"
  },
  {
    "Compound": "O=C(NCCN1CCCC1)C1CCN(c2cnc(N3CCCCC3)nc2)CC1",
    "Assigned Label": "active"
  },
  {
    "Compound": "Cc1ccccc1NC(=O)CNc1nc(Nc2ccccc2)nc(Nc2ccccc2)n1",
    "Assigned Label": "active"
  },
  {
    "Compound": "CC1CS(=O)(=O)N(c2ccc(C(=O)Nc3ccc4c(c3)OCCO4)cc2)C1=O (stereo unspecified)",
    "Assigned Label": "active"
  },
  {
    "Compound": "CSc1nc2ncc3c(=O)n(CCc4ccccc4)ccc3n2n1",
    "Assigned Label": "inactive"
  },
  {
    "Compound": "Cc1ccccc1-c1nnc(-c2ccc(C(=O)NCc3ccccc3F)cc2)o1",
    "Assigned Label": "active"
  },
  {
    "Compound": "O=C(NC1CCCC1)c1cccc(-c2ccc(N3CCCC3)nc2)c1",
    "Assigned Label": "active"
  },
  {
    "Compound": "COc1ccccc1-c1nc2c3c(ncn2n1)Oc1c(c(C)nn1-c1ccccc1)C3c1cccnc1 (stereo unspecified)",
    "Assigned Label": "active"
  },
  {
    "Compound": "CC(C)N1C[C@@H]2C[C@H](NS(=O)(=O)c3cccc(C#N)c3)CN2Cc2ccccc21",
    "Assigned Label": "inactive"
  },
  {
    "Compound": "Cc1ccc(-n2cc3c(N4CCCC(C(=O)NCC5CCCCC5)C4)ncnc3n2)cc1 (stereo unspecified)",
    "Assigned Label": "inactive"
  },
  {
    "Compound": "Cc1ccc2c(c1)[C@]1(C(=O)N2)[C@@H](C(=O)c2ccccc2)[C@]2(C(=O)Nc3ccccc32)[C@@H]2CCCN21",
    "Assigned Label": "active"
  },
  {
    "Compound": "O=C(/C=C/c1cnc2ccccc2c1)NCc1ccccc1",
    "Assigned Label": "active"
  },
  {
    "Compound": "Cc1nc(-c2ccc(-n3cc(C(=O)Nc4cccc(F)c4)c(C)n3)cc2)no1",
    "Assigned Label": "active"
  },
  {
    "Compound": "Cc1sc(-c2cccnc2)nc1OC(=O)c1ccc(Cl)c(Cl)c1",
    "Assigned Label": "inactive"
  },
  {
    "Compound": "Cc1ccc(C2c3c(-c4ccccc4O)n[nH]c3C(=O)N2Cc2ccco2)cc1 (stereo unspecified)",
    "Assigned Label": "active"
  }
]
